# Test system: IFN-r
# Test protocol: Production of inflammatory cytokines, ELISA: IFN-r, lymphocytes of human peripheral blood; further: test concentration or dose not given here
# Format: cell-based
# Experimental context: D: Lymphocytes of human peripheral blood

| Compound | Measurement target | IFN-r production [ng/mL] |
| --- | --- | --- |
| CCN(C(=N)NC(=N)N)c1ccc(F)cc1F [SD-283, N-(2,4-Difluorophenyl)-N-ethylbiguanide] | IFN-r | 0.1 |
| CN(C(=N)NC(=N)N)c1ccc(F)cc1F [SD-284, N-(2,4-Difluorophenyl)-N-methylbiguanide] | IFN-r | 0.08 |
| CCN(C(=N)NC(=N)N)c1ccc(F)cc1 [SD-282, N-Ethyl-N-(4-fluorophenyl) biguanide] | IFN-r | 0.1 |
| CCN(C(=N)NC(=N)N)c1ccc(F)c(F)c1 [SD-281, N-(3,4-Difluorophenyl)-N-ethylbiguanide] | IFN-r | 0.1 |
